- TARGET OF ASSAY: T1, 4H2442-bH
- T1 chain: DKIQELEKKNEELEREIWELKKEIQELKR
- PROTOCOL NOTES: two-hybrid library CCNG1;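 also: natural log of median RNA to DNA barcode read ratio; higher means stronger binding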
PARAMETER MEASURED: interaction score

BINDER: DENQELEKENEELKRKIWELKKEIQELER [4H1257-bH]
PARAMETER MEASURED: interaction score
QUANTITATIVE READOUT: -0.172

(a) DENQELKKKIEELERKNWELEKKIQELER [4H1845-bH]
(b) DENQELEKKNEELERKIWELEKKIQELKR [4H1446-bH]
(c) DKIQELEKKNEELEREIWELKKEIQELKR [4H2442-bH]
(d) DENQELKKKIEELERKIWELEKENQELKR [4H1828-bH]
In: Sort (4 binders) by interaction score: min first. Your task in answering is to list the labels in the requested order.
Out: a, d, b, c
(a: -0.237, d: 0.0564, b: 0.731, c: 1.25)
